System: HT29 colon
assay-name: NCI-60 one-dose screen, 48 h
particulars: 10 µM unless noted
Protocol: Growth inhibition of the HT29 human tumor cell line is measured as a screen for anti-cancer activity. Cells are grown in 96 well plates and exposed to the test compound for 48 hours. Compounds are tested at a single concentration, which is 10^-5 M for most compounds. The reported endpoint is percent growth (GI% or GIPRCNT), where numbers from 0 - 100% represent growth inhibition, and numbers from -100% - 0 represent cell death. For example, a value of 40 represents 60% growth inhibition. […]
About 83,000 compounds went through this panel and 20% of them were active in at least one assay; those are over-represented in the sample as a whole. The source made the active and inactive calls. Rule for the calls: active = growth percent below 10; inactive = the rest.
// classify into active, inactive

query: Fill in: this test's call for O=C(NO)c1ccc(Cn2c(=O)n(CCc3ccc(O)cc3)c(=O)c3ccccc32)cc1 is ___
result: inactive

query: Fill in: this test's call for O=[N+]([O-])c1cccc(/C=N\Nc2ccccc2)c1 is ___
result: inactive

query: Fill in: this test's call for C=C(C)[C@@H]1CC[C@]2(CN)CC[C@]3(C)[C@H](CC[C@@H]4[C@@](C)(CCCN)[C@H](C(=C)C)CC[C@]43C)[C@@H]12 is ___
result: inactive

query: Fill in: this test's call for COC(=O)[C@]12CC[C@@H](C)[C@H](C)[C@@H]1C1=CC[C@@H]3[C@@]4(C)C[C@@H](OC(C)=O)[C@H](O)[C@@](C)(COC(C)=O)[C@@H]4[C@H](O)C[C@@]3(C)[C@]1(C)CC2 is ___
result: active

query: Fill in: this test's call for COc1ccc2c(c1)c(-c1nc(-c3cn(C)c4ncccc34)cs1)cn2CCN is ___
result: inactive

query: Fill in: this test's call for COc1cc(-c2cc(-c3nc4cc(Cl)c(Cl)cc4[nH]3)[nH]n2)cc(OC)c1OC is ___
result: inactive

query: Fill in: this test's call for Cc1cc(Cl)c2c(N(C)C)cccc2n1 is ___
result: inactive

query: Fill in: this test's call for CC(CNc1nc(Nc2ccc(Cl)c(Cl)c2)nc(C(Cl)(Cl)Cl)n1)N(C)C (stereo not drawn) is ___
result: active
